test: Stability in rat plasma was determined; format: ADME
VALUE KIND: log10(half-life) (log10 of the value in min)

- CHEM SMILES: "CCOC(=O)[C@H](Cc1ccc(OC(=O)N(C)C)cc1)NC(=O)[C@H]1N(S(=O)(=O)c2ccn(C)n2)CSC1(C)C"
  log10(half-life): 0.91
- CHEM SMILES: "CN(C)C(=O)Oc1ccc(C[C@H](NC(=O)[C@H]2N(S(=O)(=O)c3ccn(C)n3)CSC2(C)C)C(=O)OCC(C)(C)C)cc1"
  log10(half-life): 1.73
- CHEM SMILES: "CN(C)C(=O)Oc1ccc(C[C@H](NC(=O)[C@H]2N(S(=O)(=O)c3ccn(C)n3)CSC2(C)C)C(=O)OCOC(=O)C(C)(C)C)cc1"
  log10(half-life): 0.45
- CHEM SMILES: "COCCOCCOC(=O)[C@H](Cc1ccc(OC(=O)N(C)C)cc1)NC(=O)[C@H]1N(S(=O)(=O)c2ccn(C)n2)CSC1(C)C"
  log10(half-life): 1.12
- CHEM SMILES: "CN(C)C(=O)Oc1ccc(C[C@H](NC(=O)[C@H]2N(S(=O)(=O)c3ccn(C)n3)CSC2(C)C)C(=O)OCCOc2ccccc2)cc1"
  log10(half-life): 0.20
- CHEM SMILES: "CC(C)OC(=O)[C@H](Cc1ccc(OC(=O)N(C)C)cc1)NC(=O)[C@H]1N(S(=O)(=O)c2ccn(C)n2)CSC1(C)C"
  log10(half-life): 1.04
